Entry source: the RNAGym collection of RNA variant scans (doi:10.7554/elife.80360)

B1: HDV Ribozyme (parent)
chain: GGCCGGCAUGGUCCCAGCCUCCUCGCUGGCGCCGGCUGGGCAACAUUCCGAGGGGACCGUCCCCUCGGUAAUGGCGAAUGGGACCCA

- Variants of: B1
- assay: self-cleavage, relative activity (ratio to wild type); higher = more cleavage; co-transcriptional
Binning scheme for self-cleavage: range A = under 0.07, range B = from 0.07 up to 0.6, range C = 0.6 and over

Observe how each entry below is paired with its result.
[[record]]
ordered_residues = "GGCUGGCAUGGUCCCAGCCUUCUCGCUGGCGCCGGCUGGGCAACAUUCCGAGGGGACCGUCCCCUCGGUAAUGGCGAAUGGGACCCA [C4U C21U]"
class_label = "range A"

[[record]]
ordered_residues = "GGCCGGCAUGGUCCCAGCCCCCUCGCUGGCGACGGCUGGGCAACAUUCCGAGGGGACCGUCCCCUCGGUAAUGGCGAAUGGGACCCA [U20C C32A]"
class_label = "range B"

[[record]]
ordered_residues = "GGCCGGCAUGGUCCCAGCCUGCUCCCUGGCGCCGGCUGGGCAACAUUCCGAGGGGACCGUCCCCUCGGUAAUGGCGAAUGGGACCCA [C21G G25C]"
class_label = "range A"

[[record]]
ordered_residues = "GGCCGGCAUGGUCCCGGCCUCCUAGCUGGCGCCGGCUGGGCAACAUUCCGAGGGGACCGUCCCCUCGGUAAUGGCGAAUGGGACCCA [A16G C24A]"
class_label = "range B"

[[record]]
ordered_residues = "GCCCGGCAUGGUCCCAGCCUCCUCGCUGGCGCCGGCUGGGCAACAUUCCGAGGGGACCGUCCCCUCGGUAAUGACGAAUGGGACCCA [G2C G74A]"
class_label = "range B"


# classify by self-cleavage band: GGCCGGCAUGGGCCCAGCCUCCUCGCUGGCGCCGGCUGAGCAACAUUCCGAGGGGACCGUCCCCUCGGUAAUGGCGAAUGGGACCCA [U12G G39A]
range B

Request: GGCCGGCAUGGUCCCAGCCUCCUCGCUGGCGCCGGCUGGGCAACAUUCCGAGGGGACCCUCCCCUCGGUAAUGGCGAAAGGGACCCA [G59C U79A]
range C

Request: GGCCGGCAUGGUCCCAGCCUACUCGCUGGCGCCGGCUGGGCAACAUUCCGAGGGGACCGUCCCCUGGGUAAUGGCGAAUGGGACCCA [C21A C66G]
range A

Request: GGCCGGCAUGGUCCCAGCCUCUUCGCUGGCGCCGGCUGGGCAACAUUCCGAGGGGACCGUCCCCUCGGCAAUGGCGAAUGGGACCCA [C22U U69C]
range C

Request: GGCCGGCAUGGUCCCAGCCUCCUCGUUGGCGCCGGCUGGGCAACAUUCCGAGGGGACCGUCCCCUCGGUAAAGGCGAAUGGGACCCA [C26U U72A]
range C
